# Assay System: PDHK2 (Homo sapiens (Human))
Measured Parameter: IC50

Query: # query: IC50 of entry CC1CN(C(=O)[C@@](C)(O)C(F)(F)F)Cc2cnn(-c3ccc(Cl)cc3)c21 (stereo partly shown)
Reply: < 300 nM

Query: For `C[C@H]1CN(C(=O)[C@@](C)(O)C(F)(F)F)Cc2cn[nH]c21` , what is its reported IC50?
Reply: 300 to 3000 nM

Query: Form field: reported IC50 of `C[C@H]1CN(C(=O)[C@@](C)(O)C(F)(F)F)Cc2cnn(-c3ncccc3F)c21`
Reply: 3000 to 50000 nM

Query: I have this compound here, `CC(C)(C)n1cc2c(n1)CCN(C(=O)[C@@](C)(O)C(F)(F)F)C2` , and I need its recorded IC50.
Reply: 300 to 3000 nM

Query: What does the data say about its IC50? Entry: `C[C@H]1CN(C(=O)[C@@](C)(O)C(F)(F)F)Cc2cnc(-c3ccc(F)cc3F)n21`
Reply: 300 to 3000 nM

Query: IC50 for `C[C@@](O)(C(=O)N1CCc2c(nnn2-c2ccccc2)C1)C(F)(F)F` ?
Reply: 300 to 3000 nM

Query: What measured IC50 goes with `CC(C)(C)n1ncc2c1CCN(C(=O)[C@@](C)(O)C(F)(F)F)C2` ?
Reply: < 300 nM

Query: Reported IC50 for `C[C@@](O)(C(=O)N1CCc2c(ncn2-c2ccc(F)cc2)C1)C(F)(F)F` : what is it?
Reply: 300 to 3000 nM

Query: Could you tell me which IC50 is on file for `C[C@H]1CN(C(=O)[C@@](C)(O)C(F)(F)F)Cc2cnn(-c3ccccc3)c21` ?
Reply: 300 to 3000 nM

Query: Any idea what IC50 was measured for `C[C@@](O)(C(=O)N1CCc2c(cnn2-c2ccc(F)cc2)C1)C(F)(F)F` ?
Reply: < 300 nM

* * *

Could you please report measured Kd for the items listed next?
# Assay System: human PDHK2 (12-407) (Homo sapiens (Human), UniProt Q15119)

Query: Form field: reported Kd of CC(C)(C)n1ncc2c1CCN(C(=O)[C@@](C)(O)C(F)(F)F)C2 [Compound A7]
Reply: < 300 nM

Query: // returns reported Kd for input CC1CN(C(=O)[C@@](C)(O)C(F)(F)F)Cc2cn(-c3ccc(F)cc3)nc21 (some centres unmarked) [Compound A13]
Reply: 300 to 3000 nM

Query: # lookup: Kd of C[C@@](O)(C(=O)N1CCc2c(cnn2-c2ccc(F)cc2)C1)C(F)(F)F [Compound A4]
Reply: < 300 nM

Query: Dear colleague, I am looking for the recorded Kd of the following compound: C[C@@H]1CN(C(=O)[C@@](C)(O)C(F)(F)F)Cc2cnn(-c3ncc(F)cc3F)c21 [Compound A34]
Reply: < 300 nM

Query: // Kd lookup, key: C[C@@H]1CN(C(=O)[C@@](C)(O)C(F)(F)F)Cc2cnc(-c3ccc(F)cc3)n21 [Compound A52]
Reply: < 300 nM

* * *

Exercise: state measured pIC50 for each of the compounds provided.
# Test system: PDH-E1alpha (pSer300) in HEK293T cells
# Experiment Description: Cellular immunofluorescence assay, PDH-E1alpha (pSer300) in HEK293T cells
# Type: cell-based, human
# Condition Label: Homo sapiens, HEK-293T, 5 hours incubation, anti-PDH-E1alpha (pSer300) immunofluorescence, read-out: IC50 (cell data)
pIC50: −log10 of the molar value.

Query: Tell me the measured pIC50 of `C[C@@](O)(C(=O)N1CCc2c(nnn2-c2ccccc2)C1)C(F)(F)F` , please.
Reply: 4.30 to 5.52

Query: So what does the record say about pIC50 for CC1CN(C(=O)[C@@](C)(O)C(F)(F)F)Cc2cn(-c3ccccc3)nc21 (some centres unmarked) ?
Reply: 5.52 to 6.52

Query: Returns the measured pIC50 for the input compound. Input: `C[C@@](O)(C(=O)N1CCc2c(ncn2-c2ccc(Cl)cc2)C1)C(F)(F)F`
Reply: 4.30 to 5.52

Query: Data request, read-out pIC50, for `C[C@@](O)(C(=O)N1CCc2c(nnn2-c2ccc(F)cc2)C1)C(F)(F)F`
Reply: 4.30 to 5.52

Query: Reported pIC50 for `C[C@@](O)(C(=O)N1CCc2c(cnn2-c2ccccc2)C1)C(F)(F)F` : what is it?
Reply: 5.52 to 6.52
